Assay: Stability of the compound in simulated human gastric juices up to 1500 mins by HPLC analysis
Type: ADME, Gastric juice
Conditions: 25 h
Endpoint label: Stability

>>> experimental_result("Cc1ccc(-c2cc(C(F)(F)F)nn2-c2ccc(S(=O)(=O)NC(=O)CCc3ccccc3[N+](=O)[O-])cc2)cc1")
"Stable"
>>> experimental_result("C[C@]12C=CC(=O)C=C1CC[C@@H]1[C@@H]2[C@@H](O)C[C@@]2(C)[C@H]1CC[C@]2(O)C(=O)COC(=O)Cc1ccccc1[N+](=O)[O-]")
"Stable"
>>> experimental_result("CCCC1O[C@@H]2C[C@H]3[C@@H]4CCC5=CC(=O)C=C[C@]5(C)[C@H]4[C@@H](O)C[C@]3(C)[C@]2(C(=O)COC(=O)CCc2ccccc2[N+](=O)[O-])O1 (stereo partly drawn)")
"Stable"
